# SUBJECT OF TEST: T1, human amylin receptor (AMY3) on CHO-K1/Ga15/AMY3 cells (human, UniProt P30988 25-474; O60896 24-148)
# T1 sequence (looked up) 1: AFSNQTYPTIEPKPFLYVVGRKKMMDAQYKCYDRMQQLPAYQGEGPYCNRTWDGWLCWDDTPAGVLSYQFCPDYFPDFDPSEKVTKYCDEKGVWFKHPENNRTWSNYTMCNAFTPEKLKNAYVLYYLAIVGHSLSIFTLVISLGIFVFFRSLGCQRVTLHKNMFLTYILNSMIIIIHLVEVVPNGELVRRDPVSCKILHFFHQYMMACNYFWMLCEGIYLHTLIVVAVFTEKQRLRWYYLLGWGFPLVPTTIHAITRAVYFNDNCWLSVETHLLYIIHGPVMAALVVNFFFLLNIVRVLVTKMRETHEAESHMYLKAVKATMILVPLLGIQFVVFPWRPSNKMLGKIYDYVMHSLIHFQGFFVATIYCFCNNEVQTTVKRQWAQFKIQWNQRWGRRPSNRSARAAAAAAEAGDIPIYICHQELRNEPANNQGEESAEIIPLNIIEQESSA
# T1 sequence (looked up) 2: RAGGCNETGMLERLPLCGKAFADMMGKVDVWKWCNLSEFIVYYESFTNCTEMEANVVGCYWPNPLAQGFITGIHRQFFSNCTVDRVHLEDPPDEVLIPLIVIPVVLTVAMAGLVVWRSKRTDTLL
# PROTOCOL TEXT: cell-based or functional assay
*1 amine or outer side, *2 acyl side, *3 side chain or, on linkers, in order; H or OH if unused. Bridges are numbered along the chain shown (N, C = ends). Primed or numbered codes have the meaning given here. Where no end group is shown, it is not given here. Side-chain parts run from the residue outwards. [ ]: non-standard residue; d: D form. The star is where a group is joined. C20 diacid = O=C(O)CCCCCCCCCCCCCCCCCCC(=O)*; C18 diacid = O=C(O)CCCCCCCCCCCCCCCCC(=O)*; γGlu = O=C(O)[C@H](CCC(=O)[*:2])N[*:1]; Hyp = O=C(O)[C@@H]1C[C@@H](O)CN1; Trx′ = not defined here; AEEA = NCCOCCOCC(=O)O
Please use Y for EC50, CRE-luciferase assay under 0.03 nM and N for everything else, ties included.

Request: Regarding {C20 diacid-Trx′-AEEA-AEEA}-KCNTATCATQRLADFLRHSSNNLKPILPPTNVGSNTP-NH2 (disulfide 2-7 (inferred); reading uncertain; also: printed as N-terminal: 2*AEEA + Trx + C20 diacid; C-terminal NH2) [PD189] , kindly confirm whether its EC50, CRE-luciferase assay is beneath 0.03 nM.
Result: Y

Request: Regarding {C18 diacid-γGlu}-KCNTATCATQRLADFLRHSSNNLGPILPPTNVGSNT[Hyp]-NH2 (disulfide 2-7 (inferred); not fully specified; printed as KCNTATCATQRLADFLRHSSNNLGPILPPTNVGSNT-trans-Hyp-NH2) [PD124] , kindly confirm whether its EC50, CRE-luciferase assay is beneath 0.03 nM.
Result: Y

Request: Regarding RCNTATCATQRLADFLRHSSNNLGK([γGlu-C20 diacid])ILPPTNVGSNT[Hyp]-NH2 (disulfide 2-7 (inferred)) [PD102] , kindly confirm whether its EC50, CRE-luciferase assay is beneath 0.03 nM.
Result: N
